protocol text: activity coefficient (dimensionless); of the first substance listed, at infinite dilution; xn = mol fraction of the nth substance listed
condition details: 358.15 K; 101.33 kPa; Liquid; Chromatography; x1 = 0
# label = Condition met if activity coefficient >= 0.8 else Condition not met

Answered examples (6):
C1CCOC1 [tetrahydrofuran] + CCCCCCCCCCCCn1cc[n+](C)c1.O=S(=O)([N-]S(=O)(=O)C(F)(F)F)C(F)(F)F :: Condition not met
CCCC(=O)OC [methyl butanoate] + CCCCCCCCCCCCn1cc[n+](C)c1.O=S(=O)([N-]S(=O)(=O)C(F)(F)F)C(F)(F)F :: Condition not met
C=CCCCCCC [oct-1-ene] + CCCCCCCCCCCCn1cc[n+](C)c1.O=S(=O)([N-]S(=O)(=O)C(F)(F)F)C(F)(F)F :: Condition met
CCCCC [pentane] + CCCCCCCCCCCCn1cc[n+](C)c1.O=S(=O)([N-]S(=O)(=O)C(F)(F)F)C(F)(F)F :: Condition met
CCCO [propan-1-ol] + CCCCCCCCCCCCn1cc[n+](C)c1.O=S(=O)([N-]S(=O)(=O)C(F)(F)F)C(F)(F)F :: Condition met
CC(C)(C)O [2-methylpropan-2-ol] + CCCCCCCCCCCCn1cc[n+](C)c1.O=S(=O)([N-]S(=O)(=O)C(F)(F)F)C(F)(F)F :: Condition met

Alright, here's another compound for you.
[ask] Does the compound Cc1ccccc1 [toluene] + CCCCCCCCCCCCn1cc[n+](C)c1.O=S(=O)([N-]S(=O)(=O)C(F)(F)F)C(F)(F)F have recorded activity coefficient that is 0.8 or more?
[reply] Condition met
